assay: Drug repurposing screens with cells derived from glioblastoma tumor samples (AID 1345199); conditions: GBM patient neurospheres viability, ATP luminescence, 48 h; at 45.9 µM (top of the series); tumour line D; note: % is set by controls: 0 for no effect and ±100 for the full control effect
Results filed as inconclusive are left out.
Measure Name: activity, negative = cell killing (%)

Compound	Recorded Number
Cc1cc(C)cc(OCC2CNC(=O)O2)c1 (stereo unspecified)	-17.2
CCCCN1C[C@H](O)[C@@H](O)[C@H](O)[C@H]1CO	-2.4
CCOc1ccccc1C(N)=O	-0.0314
CCOc1ccc(NC(C)=O)cc1	-8.88
O=[N+]([O-])c1cccc(S(=O)(=O)NCCNS(=O)(=O)c2cccc([N+](=O)[O-])c2)c1	-9.35
Cc1ccc(S(=O)(=O)NC(=O)NC2CCCC2)cc1	-9.83
C[C@@H](O)[C@H]1C(=O)N2C(C(=O)O)=C(S[C@@H]3CN[C@H](CNS(N)(=O)=O)C3)[C@H](C)[C@H]12	1.38
FC1(F)C(F)(F)C(F)(F)C2(F)C(F)(F)C(F)(F)C(F)(F)C(F)(F)C2(F)C1(F)F (stereo unspecified)	-0.34
C/C=C/C=N/NC(=O)c1ccncc1	-18.3
CC(=O)Oc1ccc(C)cc1	-7.35
CC1(C)OC[C@@H]2O[C@@]3(C(=O)O)OC(C)(C)O[C@H]3[C@@H]2O1	2.89
